B1: DLC1 (parent)
chain: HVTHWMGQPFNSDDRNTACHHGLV

Variants of: B1
methodNotes: protein stability index of a GFP-peptide fusion (GPS, HEK-293T) (PSI 1-6); higher = more stable;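 note: lentivirally expressed fusions sorted by FACS into six bins by GFP to DsRed ratio, PSI derived from sequencing read proportions per bin multiplied by bin number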
conditionDetails: c terminus: a fixed tail appended
Rule: protein stability index of 2 or more gives 1 (yes); anything lower gives 0 (no).

- mutationAnnotation: "L23Y"
  class: "1 (yes)"
- mutationAnnotation: "A18I"
  class: "0 (no)"
- mutationAnnotation: "W5K"
  class: "1 (yes)"
- mutationAnnotation: "N16H"
  class: "1 (yes)"
- mutationAnnotation: "G7L"
  class: "1 (yes)"
- mutationAnnotation: "H1G"
  class: "1 (yes)"
- mutationAnnotation: "D13H"
  class: "0 (no)"
- mutationAnnotation: "N16C"
  class: "1 (yes)"
- mutationAnnotation: "R15H"
  class: "1 (yes)"
- mutationAnnotation: "A18E"
  class: "1 (yes)"
- mutationAnnotation: "H21A"
  class: "1 (yes)"
- mutationAnnotation: "S12F"
  class: "0 (no)"
- mutationAnnotation: "R15S"
  class: "1 (yes)"
- mutationAnnotation: "H4A"
  class: "0 (no)"
- mutationAnnotation: "D14Y"
  class: "0 (no)"
- mutationAnnotation: "L23T"
  class: "1 (yes)"
- mutationAnnotation: "D14N"
  class: "0 (no)"
- mutationAnnotation: "P9N"
  class: "1 (yes)"
- mutationAnnotation: "T17Y"
  class: "0 (no)"
- mutationAnnotation: "L23K"
  class: "1 (yes)"
- mutationAnnotation: "Q8I"
  class: "1 (yes)"
- mutationAnnotation: "P9V"
  class: "0 (no)"
- mutationAnnotation: "M6L"
  class: "0 (no)"
- mutationAnnotation: "Q8T"
  class: "1 (yes)"
- mutationAnnotation: "L23I"
  class: "0 (no)"
- mutationAnnotation: "M6Q"
  class: "1 (yes)"
- mutationAnnotation: "N16S"
  class: "0 (no)"
- mutationAnnotation: "T3L"
  class: "0 (no)"
- mutationAnnotation: "L23R"
  class: "1 (yes)"
- mutationAnnotation: "M6R"
  class: "1 (yes)"
- mutationAnnotation: "F10G"
  class: "1 (yes)"
- mutationAnnotation: "H20I"
  class: "1 (yes)"
- mutationAnnotation: "Q8P"
  class: "1 (yes)"
- mutationAnnotation: "N16W"
  class: "0 (no)"
- mutationAnnotation: "G7P"
  class: "1 (yes)"
- mutationAnnotation: "D13V"
  class: "0 (no)"
- mutationAnnotation: "G22S"
  class: "0 (no)"
- mutationAnnotation: "H21W"
  class: "0 (no)"
- mutationAnnotation: "G7M"
  class: "0 (no)"
- mutationAnnotation: "F10N"
  class: "1 (yes)"
- mutationAnnotation: "W5I"
  class: "1 (yes)"
- mutationAnnotation: "D13R"
  class: "0 (no)"
- mutationAnnotation: "G7E"
  class: "1 (yes)"
- mutationAnnotation: "V2T"
  class: "1 (yes)"
- mutationAnnotation: "D13E"
  class: "1 (yes)"
- mutationAnnotation: "T3D"
  class: "0 (no)"
